# Target system: MLKL (Homo sapiens, UniProt Q8NB16, D107A/E111A)
# Construct: full-length hMLKL(2–471)
# Sequence (Q8NB16 2-471 D107A/E111A): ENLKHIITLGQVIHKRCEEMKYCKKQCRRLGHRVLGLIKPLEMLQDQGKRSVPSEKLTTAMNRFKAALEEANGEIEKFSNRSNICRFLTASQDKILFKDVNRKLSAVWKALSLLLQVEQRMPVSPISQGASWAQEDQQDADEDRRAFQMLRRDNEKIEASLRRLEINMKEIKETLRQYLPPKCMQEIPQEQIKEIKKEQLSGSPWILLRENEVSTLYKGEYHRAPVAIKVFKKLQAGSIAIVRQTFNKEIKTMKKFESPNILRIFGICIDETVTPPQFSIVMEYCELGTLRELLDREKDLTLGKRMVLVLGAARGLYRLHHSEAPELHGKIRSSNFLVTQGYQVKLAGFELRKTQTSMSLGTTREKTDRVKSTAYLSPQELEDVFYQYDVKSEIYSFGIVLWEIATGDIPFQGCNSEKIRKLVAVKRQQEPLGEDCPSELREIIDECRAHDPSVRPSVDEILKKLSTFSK
# Protocol description: thermal shift assay with ATP titration
pKd: −log10 of the molar value.

| Compound smiles | Target system | pKd |
| --- | --- | --- |
| Nc1ncnc2c1ncn2[C@@H]1O[C@H](COP(=O)(O)OP(=O)(O)OP(=O)(O)O)[C@@H](O)[C@H]1O | MLKL (Homo sapiens, UniProt Q8NB16, D107A/E111A) | 4.64 |

###

# Target system: MLKL (Homo sapiens, UniProt Q8NB16, S358E/T357E)
# Construct: full-length hMLKL(2–471)
# Sequence (Q8NB16 2-471 T357E/S358E): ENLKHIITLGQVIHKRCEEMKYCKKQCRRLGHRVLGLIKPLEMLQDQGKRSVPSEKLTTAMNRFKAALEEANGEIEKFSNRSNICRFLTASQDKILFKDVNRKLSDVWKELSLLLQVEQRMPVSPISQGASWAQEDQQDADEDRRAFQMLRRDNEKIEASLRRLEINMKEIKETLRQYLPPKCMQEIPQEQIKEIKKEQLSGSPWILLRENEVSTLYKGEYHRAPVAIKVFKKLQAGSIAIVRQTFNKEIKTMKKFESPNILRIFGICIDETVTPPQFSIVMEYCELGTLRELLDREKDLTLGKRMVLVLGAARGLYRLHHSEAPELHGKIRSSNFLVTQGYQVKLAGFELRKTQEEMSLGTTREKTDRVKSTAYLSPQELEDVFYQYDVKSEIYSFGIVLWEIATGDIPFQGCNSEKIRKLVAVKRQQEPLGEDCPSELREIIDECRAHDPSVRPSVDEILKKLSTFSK
# Protocol description: thermal shift assay with ATP titration

| Compound smiles | Kd |
| --- | --- |
| Nc1ncnc2c1ncn2[C@@H]1O[C@H](COP(=O)(O)OP(=O)(O)OP(=O)(O)O)[C@@H](O)[C@H]1O | 56 µM |
